- Tested on: Rh41 rhabdomyosarcoma cells
- assay_remarks: Chou-Talalay combination assay, Cell Titer Glo
- Assay type: cell-based
- recorded_conditions: combination with pyrvinium pamoate, 72 hour incubation
quantity_kind: CI range

| compound | quantity_kind | observed |
| --- | --- | --- |
| CC(=O)O[C@H]1C(=O)[C@@]2(C)[C@H]([C@H](OC(=O)c3ccccc3)[C@]3(O)C[C@H](OC(=O)[C@H](O)[C@@H](NC(=O)c4ccccc4)c4ccccc4)C(C)=C1C3(C)C)[C@]1(OC(C)=O)CO[C@@H]1C[C@@H]2O | CI range | 0.073-0.876 |
| N.N.O=C([O-])C1(C(=O)[O-])CCC1.[Pt+2] | CI range | 0.162-0.820 |
| CCc1c2c(nc3ccc(OC(=O)N4CCC(N5CCCCC5)CC4)cc13)-c1cc3c(c(=O)n1C2)COC(=O)[C@]3(O)CC | CI range | 0.068-0.711 |
| CC[C@]1(O)C[C@H]2CN(CCc3c([nH]c4ccccc34)[C@@](C(=O)OC)(c3cc4c(cc3OC)N(C=O)[C@H]3[C@@](O)(C(=O)OC)[C@H](OC(C)=O)[C@]5(CC)C=CCN6CC[C@]43[C@@H]65)C2)C1 | CI range | 0.284-0.876 |
| O=c1[nH]cc(F)c(=O)[nH]1 | CI range | 0.642-0.831 |
| N.N.[Cl][Pt][Cl] [Cisplatin] | CI range | 0.130-0.874 |
| O=P1(N(CCCl)CCCl)NCCCO1 (centres unmarked) [Cyclophosphamide] | CI range | 0.274-0.867 |
| COc1cccc2c1C(=O)c1c(O)c3c(c(O)c1C2=O)C[C@@](O)(C(=O)CO)C[C@@H]3O[C@H]1C[C@H](N)[C@H](O)[C@H](C)O1 | CI range | 0.145-0.834 |

###

Reported CI range by item:
- System: GIST-1 gastrointestinal stromal tumor cells
- assay_remarks: Chou-Talalay combination assay, Cell Titer Glo
- Assay type: cell-based
- recorded_conditions: combination with pyrvinium pamoate, 72 hour incubation
quantity_kind: CI range

| molecule | measured_on | observed |
| --- | --- | --- |
| N.N.[Cl][Pt][Cl] [Cisplatin] | GIST-1 gastrointestinal stromal tumor cells | 0.177-0.732 |
| CCN1CCN(Cc2ccc(Nc3ncc(F)c(-c4cc(F)c5nc(C)n(C(C)C)c5c4)n3)nc2)CC1 | GIST-1 gastrointestinal stromal tumor cells | 0.249-0.699 |
| CCc1c2c(nc3ccc(OC(=O)N4CCC(N5CCCCC5)CC4)cc13)-c1cc3c(c(=O)n1C2)COC(=O)[C@]3(O)CC | GIST-1 gastrointestinal stromal tumor cells | 0.039-0.837 |
| Cc1ccc(NC(=O)c2ccc(CN3CCN(C)CC3)cc2)cc1Nc1nccc(-c2cccnc2)n1 | GIST-1 gastrointestinal stromal tumor cells | 0.203-0.726 |
| O=c1[nH]cc(F)c(=O)[nH]1 | GIST-1 gastrointestinal stromal tumor cells | 0.168-0.798 |
| COc1cccc2c1C(=O)c1c(O)c3c(c(O)c1C2=O)C[C@@](O)(C(=O)CO)C[C@@H]3O[C@H]1C[C@H](N)[C@H](O)[C@H](C)O1 | GIST-1 gastrointestinal stromal tumor cells | 0.169-0.883 |
| CC(=O)O[C@H]1C(=O)[C@@]2(C)[C@H]([C@H](OC(=O)c3ccccc3)[C@]3(O)C[C@H](OC(=O)[C@H](O)[C@@H](NC(=O)c4ccccc4)c4ccccc4)C(C)=C1C3(C)C)[C@]1(OC(C)=O)CO[C@@H]1C[C@@H]2O | GIST-1 gastrointestinal stromal tumor cells | 0.399-0.808 |
